Molecular target: KAT-5 (Homo sapiens (Human), UniProt Q92993)
Sequence (Q92993 other isoform, or with tags, fused parts or gaps): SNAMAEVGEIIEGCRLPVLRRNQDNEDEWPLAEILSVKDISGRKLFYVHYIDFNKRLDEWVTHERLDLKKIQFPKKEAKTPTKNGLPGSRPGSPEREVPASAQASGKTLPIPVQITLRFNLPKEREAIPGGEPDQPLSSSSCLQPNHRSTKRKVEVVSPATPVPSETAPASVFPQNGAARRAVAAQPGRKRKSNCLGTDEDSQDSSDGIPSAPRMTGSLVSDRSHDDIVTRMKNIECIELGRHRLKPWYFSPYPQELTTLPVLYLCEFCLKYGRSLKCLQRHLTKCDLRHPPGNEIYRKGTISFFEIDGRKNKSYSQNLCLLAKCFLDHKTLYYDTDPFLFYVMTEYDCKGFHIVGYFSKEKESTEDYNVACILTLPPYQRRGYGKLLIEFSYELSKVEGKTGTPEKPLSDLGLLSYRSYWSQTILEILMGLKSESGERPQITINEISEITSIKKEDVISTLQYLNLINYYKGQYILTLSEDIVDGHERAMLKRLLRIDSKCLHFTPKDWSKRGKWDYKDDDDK
Test: KAT-5 biochemical inhibition assay (SAMDI mass spectrometry)

{"compound": "Cn1cnc(-c2cc(Cl)c(F)c(C(=O)NNS(=O)(=O)C[C@@H]3CCCO3)c2)c1", "IC50": "< 10 µM"}
{"compound": "COc1ccc(CN(C)C(=O)NC2CCC(CS(=O)(=O)NNC(=O)c3cc(-c4cn(C)cn4)cc(Cl)c3F)C2)cc1 (stereo not drawn)", "IC50": "< 10 µM"}
{"compound": "Cn1cnc(-c2cc(Cl)c(F)c(C(=O)NNS(=O)(=O)CC3CCC(NC(=O)OC(C)(C)C)C3)c2)c1 (stereo not drawn)", "IC50": "< 10 µM"}
{"compound": "Cn1cnc(-c2cc(Cl)c(F)c(C(=O)NNS(=O)(=O)CC3CCCC(NC(=O)c4ccncc4)C3)c2)c1 (stereo not drawn)", "IC50": "< 10 µM"}
{"compound": "Cn1cnc(-c2cc(Cl)c(F)c(C(=O)NNS(=O)(=O)c3ccccc3)c2)c1", "IC50": "< 10 µM"}
{"compound": "Cn1cnc(-c2cc(Cl)c(F)c(C(=O)NNS(=O)(=O)C3CC3)c2)c1", "IC50": "> 100 µM"}
{"compound": "Cn1cnc(-c2cc(Cl)c(F)c(C(=O)NNS(=O)(=O)CC3CCCOC3)c2)c1 (stereo not drawn)", "IC50": "< 10 µM"}
{"compound": "CO[C@H]1CC[C@H](CS(=O)(=O)NNC(=O)c2cc(-c3cn(C)cn3)cc(Cl)c2F)CC1", "IC50": "< 10 µM"}
{"compound": "Cn1cnc(-c2cc(Cl)c(F)c(C(=O)NNS(=O)(=O)CC3CC4CCC(C3)O4)c2)c1 (stereo not drawn)", "IC50": "< 10 µM"}
{"compound": "Cn1cnc(-c2cc(Cl)c(F)c(C(=O)NNS(=O)(=O)Cc3ccnn3C)c2)c1 [Compound I-480]", "IC50": "10 to 50 µM"}
{"compound": "Cn1cnc(-c2cc(Cl)c(F)c(C(=O)NNS(=O)(=O)CC3CCCC(NC(=O)Cc4ccccn4)C3)c2)c1 (stereo not drawn)", "IC50": "< 10 µM"}
{"compound": "CNC(=S)N1CC[C@H](CS(=O)(=O)NNC(=O)c2cc(-c3cn(C)cn3)cc(Cl)c2F)C1", "IC50": "< 10 µM"}
{"compound": "CC(=O)N1CCC(CS(=O)(=O)NNC(=O)c2cc(-c3cn(C)cn3)cc(Cl)c2F)C1 (stereo not drawn)", "IC50": "10 to 50 µM"}
{"compound": "CC(=O)N1[C@H]2CC[C@@H](CS(=O)(=O)NNC(=O)c3cc(-c4cn(C)cn4)cc(Cl)c3F)[C@@H]1CC2", "IC50": "< 10 µM"}
{"compound": "CC(C)NC(=O)N1CCC(CS(=O)(=O)NNC(=O)c2cc(-c3cn(C)cn3)cc(Cl)c2F)C1 (stereo not drawn)", "IC50": "< 10 µM"}
